target or system: GABA transporter 4 (Mus musculus, UniProt P31650)
Sequence (P31650 whole entry): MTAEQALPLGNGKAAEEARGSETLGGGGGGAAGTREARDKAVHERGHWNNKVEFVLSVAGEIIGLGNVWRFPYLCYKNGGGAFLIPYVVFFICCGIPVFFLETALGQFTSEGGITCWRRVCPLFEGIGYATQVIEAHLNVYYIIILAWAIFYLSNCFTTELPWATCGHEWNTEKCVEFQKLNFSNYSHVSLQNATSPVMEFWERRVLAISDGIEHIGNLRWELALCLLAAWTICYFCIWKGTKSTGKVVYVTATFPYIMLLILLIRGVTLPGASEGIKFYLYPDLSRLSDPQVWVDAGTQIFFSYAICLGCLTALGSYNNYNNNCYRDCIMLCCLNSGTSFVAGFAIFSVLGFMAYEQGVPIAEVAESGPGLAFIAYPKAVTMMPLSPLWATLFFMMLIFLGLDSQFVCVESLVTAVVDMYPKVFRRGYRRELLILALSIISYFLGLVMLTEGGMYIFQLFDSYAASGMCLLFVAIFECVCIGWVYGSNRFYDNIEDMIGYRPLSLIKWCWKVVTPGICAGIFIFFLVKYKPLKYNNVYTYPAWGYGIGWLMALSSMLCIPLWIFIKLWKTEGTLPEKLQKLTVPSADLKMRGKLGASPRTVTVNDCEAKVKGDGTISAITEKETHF
protocol details: Inhibition of mouse GAT4 transfected in HEK293 cells assessed as reduction in [3H]-GABA uptake preincubated for 25 mins followed by [3H]-GABA addition and measured after 4 mins by liquid scintillation counting analysis
Type: cell-based
condition label: read-out: pIC50 (converted)
Output 1 (yes) for records whose IC50 is lower than 20 µM, 0 (no) for records at or above 20 µM.

>  <compound>
CN(CC/C=C/c1ccccc1-c1ccccc1)C(CO)C(=O)NCc1ccccc1Cl (stereo not drawn)

>  <class name>
1 (yes)

$$$$
>  <compound>
CN(CCOCCN1c2ccccc2Sc2ccccc21)C(CCO)C(=O)NCc1ccccc1Cl (stereo not drawn)

>  <class name>
0 (no)

$$$$
>  <compound>
CC(O)CC(C(=O)NCc1ccccc1)N(C)CC/C=C/c1ccccc1-c1ccccc1 (racemic; form 1)

>  <class name>
0 (no)

$$$$
>  <compound>
CN(CCOCCN1c2ccccc2Sc2ccccc21)C(CCN)C(=O)NCc1ccccc1Cl (stereo not drawn)

>  <class name>
1 (yes)

$$$$
>  <compound>
CC(=O)NCCC(C(=O)NCc1ccccc1Cl)N(C)CCOCCN1c2ccccc2Sc2ccccc21 (stereo not drawn)

>  <class name>
1 (yes)

$$$$
>  <compound>
CN(CCOCCn1c2ccccc2c2ccccc21)C(CCO)C(=O)NCc1ccc(F)cc1 (stereo not drawn)

>  <class name>
1 (yes)

$$$$
>  <compound>
CN(CCOCCN1c2ccccc2Sc2ccccc21)C(CCN)C(=O)NCc1ccc(F)cc1 (stereo not drawn)

>  <class name>
1 (yes)

$$$$
>  <compound>
CN(CCOCCn1c2ccccc2c2ccccc21)C(CCO)C(=O)NCc1ccccc1 (stereo not drawn)

>  <class name>
1 (yes)

$$$$
>  <compound>
CC(=O)NCCC(C(=O)NCc1ccccc1)N(C)CCOCCN1c2ccccc2Sc2ccccc21 (stereo not drawn)

>  <class name>
0 (no)

$$$$
>  <compound>
CC(O)CC(C(=O)NCc1ccccc1)N(C)CC/C=C/c1ccccc1-c1ccccc1 (racemic; form 2)

>  <class name>
0 (no)

$$$$
>  <compound>
CN(CC/C=C/c1ccccc1-c1ccc(Cl)cc1Cl)C(CCN)C(=O)NCc1ccccc1 (stereo not drawn)

>  <class name>
1 (yes)

$$$$
>  <compound>
CN(CCOCCN1c2ccccc2Sc2ccccc21)C(CCN)C(=O)NCc1ccc(Cl)cc1 (stereo not drawn)

>  <class name>
1 (yes)

$$$$
>  <compound>
CC(O)CC(C(=O)NCc1ccc(F)cc1)N(C)CC/C=C/c1ccccc1-c1ccccc1 (racemic; form 2)

>  <class name>
1 (yes)

$$$$
>  <compound>
Cc1ccc(CNC(=O)C(CCN)N(C)CCOCCN2c3ccccc3Sc3ccccc32)cc1 (stereo not drawn)

>  <class name>
1 (yes)

$$$$
>  <compound>
CC(O)CC(C(=O)NCc1ccc(F)cc1)N(C)CC/C=C/c1ccccc1-c1ccccc1 (racemic; form 1)

>  <class name>
1 (yes)

$$$$
>  <compound>
CN(CCOCCN1c2ccccc2Sc2ccccc21)C(CCO)C(=O)NCc1ccccc1 (stereo not drawn)

>  <class name>
0 (no)

$$$$
>  <compound>
CC(O)CC(C(=O)NCc1ccccc1Cl)N(C)CC/C=C/c1ccccc1-c1ccccc1 (racemic; form 2)

>  <class name>
1 (yes)

$$$$
>  <compound>
CC(O)CC(C(=O)NCc1ccccc1Cl)N(C)CC/C=C/c1ccccc1-c1ccccc1 (racemic; form 1)

>  <class name>
0 (no)

$$$$
